Test system: H4 cells overexpressing full-length alpha-synuclein
Assay: Cellular model of aggregated alpha-synuclein-dependent toxicity, full-length alpha-synuclein H4 cells
Type: cell-based
Conditions: 10 μM compound, 100 μM FeCl3, 0.75% DMSO, 48 h, read-out: Change in fraction of condensed nuclei (rel. to DMSO control) [%]
Description: To identify potential therapeutically useful effects, compounds were tested in two cellular models of aggregated alpha-synuclein-dependent toxicity in H4 cells. […] In these experiments, cells were incubated with 100 μM FeCl3 and 0.75% DMSO in the presence of 10 μM anle138c as a positive control, compounds 1 to 19 (10 μM), or DMSO as a negative control. After 48 h, the cells were imaged with an OPERA high-throughput imaging system and analyzed using Acapella software (Perkin Elmer). […]
Reported inhibition at 10 µM is given for each of the following molecules.
MEASURE NAME: inhibition at 10 µM (%)

>>> print(df.to_string())
                      smiles_representation  units_of_measure  reported
0  Fc1cc(-c2cc(-c3ccc4c(c3)OCO4)n[nH]2)ccn1                 %     -28.4
1  Brc1cncc(-c2cc(-c3ccc4c(c3)OCO4)n[nH]2)c1                 %      60.2
2  CN(C)c1ccc(-c2cc(-c3ccnc(Br)c3)[nH]n2)cc1                 %      65.4
3  CN(C)c1ncc(-c2cc(-c3ccnc(Br)c3)[nH]n2)cn1                 %      -5.4
4   Cn1nc(-c2ccc3c(c2)OCO3)cc1-c1ccnc(Br)c1                 %      18.2

====

System: H4 cells overexpressing full-length alpha-synuclein
Assay: Cellular model of aggregated alpha-synuclein-dependent toxicity, full-length alpha-synuclein H4 cells
Format: cell-based
Details: 10 μM compound, 100 μM FeCl3, 0.75% DMSO, 48 h
Reported Change in cell number (rel. to DMSO control) [%] is given for each of the following molecules.
MEASURE NAME: Change in cell number (rel. to DMSO control) [%] (%)

In [3]: df
Out[3]:
                      smiles_representation                          target_or_system  reported
0  Fc1cc(-c2cc(-c3ccc4c(c3)OCO4)n[nH]2)ccn1  H4 cells overexpressing full-length alpha-synuclein      −9.8
1  Fc1cncc(-c2cc(-c3ccc4c(c3)OCO4)n[nH]2)c1  H4 cells overexpressing full-length alpha-synuclein     −18.1
2   Cn1nc(-c2ccc3c(c2)OCO3)cc1-c1ccnc(Br)c1  H4 cells overexpressing full-length alpha-synuclein     −21.3
3     Nc1ccc(-c2cc(-c3ccnc(Br)c3)[nH]n2)cc1  H4 cells overexpressing full-length alpha-synuclein     −37.8
4  Brc1cccc(-c2cc(-c3ccc4c(c3)OCO4)n[nH]2)n1  H4 cells overexpressing full-length alpha-synuclein     −11.2
5  CN(C)c1ncc(-c2cc(-c3cccc(Br)c3)[nH]n2)cn1  H4 cells overexpressing full-length alpha-synuclein     −14.6
6  Brc1cc(-c2cc(-c3ccc(N4CCC4)cc3)n[nH]2)ccn1  H4 cells overexpressing full-length alpha-synuclein     −28.9
7  CN(C)c1ccc(-c2cc(-c3ccnc(F)c3)[nH]n2)cc1  H4 cells overexpressing full-length alpha-synuclein     −34.8
8  Brc1cc(-c2cc(-c3ccc4c(c3)OCO4)n[nH]2)ccn1  H4 cells overexpressing full-length alpha-synuclein     −35.3
9   Cn1nc(-c2ccnc(Br)c2)cc1-c1ccc2c(c1)OCO2  H4 cells overexpressing full-length alpha-synuclein     −30.3

====

Test system: H4 cells overexpressing full-length alpha-synuclein
Experiment: Cellular model of aggregated alpha-synuclein-dependent toxicity, full-length alpha-synuclein H4 cells
Format: cell-based
Conditions: 10 μM compound, 100 μM FeCl3, 0.75% DMSO, 48 h, read-out: Change in fraction of condensed nuclei (rel. to DMSO control) [%]
Method: To identify potential therapeutically useful effects, compounds were tested in two cellular models of aggregated alpha-synuclein-dependent toxicity in H4 cells. […] In these experiments, cells were incubated with 100 μM FeCl3 and 0.75% DMSO in the presence of 10 μM anle138c as a positive control, compounds 1 to 19 (10 μM), or DMSO as a negative control. After 48 h, the cells were imaged with an OPERA high-throughput imaging system and analyzed using Acapella software (Perkin Elmer). […]
Reported inhibition at 10 µM is given for each of the following compounds.
MEASURE NAME: inhibition at 10 µM (%)

                      smiles_representation  reported
0  CN(C)c1ncc(-c2cc(-c3ccnc(F)c3)[nH]n2)cn1     -10.7
1   Cn1nc(-c2ccnc(Br)c2)cc1-c1ccc2c(c1)OCO2      13.2
2  CN(C)c1ncc(-c2cc(-c3cccc(Br)c3)[nH]n2)cn1      34.2
3  Brc1cccc(-c2cc(-c3ccc4c(c3)OCO4)n[nH]2)n1     -20.3
4  CN(C)c1ccc(-c2cc(-c3ccnc(Br)c3)[nH]n2)cn1      30.1
5  Brc1ccnc(-c2cc(-c3ccc4c(c3)OCO4)n[nH]2)c1      -0.8
6  Fc1cncc(-c2cc(-c3ccc4c(c3)OCO4)n[nH]2)c1      55.5
7  Clc1cc(-c2cc(-c3ccc4c(c3)OCO4)n[nH]2)ccn1      47.3
8  CN(C)c1ccc(-c2cc(-c3ccnc(F)c3)[nH]n2)cc1      79.1

====

Reported Ki is given for each of the following compounds.
Target: alpha-synuclein (sonicated fibrils) (Homo sapiens)
Construct: made in house; host or cells: E. coli
Experiment: Modified competition binding assay, protocol 3b, reference ligand [3H]-compound 2
Conditions: Table 5, reference ligand [3H]-compound 2 (1 nM)
MEASURE NAME: Ki (nM)

>>> df
                                    compound  reported
 0  CNc1ccc(-c2cc(-c3cc(Br)nc(Br)c3)[nH]n2)cc1 [Compound 37]        16
 1  CN(C)c1ccc(-c2cc(-c3ccnc(Br)c3)[nH]n2)cn1 [Compound 4]       0.7
 2  CNc1ccc(-c2cc(-c3cnnc(Cl)c3)[nH]n2)cc1 [Compound 39]       4.2
 3  FCCNc1ccc(-c2cc(-c3ccnc(Br)c3)[nH]n2)cc1 [Compound 25]       0.7
 4  CN(C)c1ccc(-c2nc(-c3ccnc(Br)c3)n[nH]2)cc1 [Compound 44]       0.6
 5  CNc1ccc(-c2cc(-c3cc(Br)ccn3)[nH]n2)cc1 [Compound 57]       2.8
 6  Fc1ccnc(-c2cc(-c3ccc4c(c3)OCO4)n[nH]2)c1 [Compound 54]       8.4
 7  CNc1ccc(-c2cc(-c3ccnc(Cl)n3)[nH]n2)cc1 [Compound 40]       3.9
 8  CN(C)c1ncc(-c2cc(-c3ccnc(Br)c3)[nH]n2)cn1 [Compound 6]       8.9
 9  Brc1cc(-c2cc(-c3ccc4c(c3)OCO4)n[nH]2)ccn1 [Compound 9]       3.3
10  Brc1cc(-c2c[nH]c(-c3ccc4c(c3)OCO4)n2)ccn1 [Compound 29]       6.3
11  [2H]C([2H])([2H])Nc1ccc(-c2cc(-c3ccnc(Br)c3)[nH]n2)cc1 [Compound 21]       0.3
12  CN(C)c1ccc(-c2c[nH]c(-c3ccnc(Br)c3)n2)cc1 [Compound 31]        13
13  Clc1cc(-c2cc(-c3ccc4c(c3)OCO4)n[nH]2)c(Cl)nn1 [Compound 48]        59
14  FC1CN(c2ccc(-c3cc(-c4ccnc(Cl)c4)[nH]n3)cc2)C1 [Compound 55]       1.2
15  CN(C)c1ncc(-c2cc(-c3ccnc(F)c3)[nH]n2)cn1 [Compound 8]       9.9
16  Clc1c(-c2ccc3c(c2)OCO3)n[nH]c1-c1ccnc(Br)c1 [Compound 28]       4.2
17  Fc1cc(-c2cc(-c3ccc4c(c3)OCO4)n[nH]2)ccn1 [Compound 12]       3.4
18  CN(C)c1ccc(-c2cc(-c3ccnc(Cl)c3)[nH]n2)cc1 [Compound 53]       0.8
19  Fc1cc(-c2cc(-c3ccc(N4CCNCC4)cc3)n[nH]2)ccn1 [Compound 49]        61
20  CCNc1ccc(-c2cc(-c3ccnc(Br)c3)[nH]n2)cc1 [Compound 23]       0.5
21  CN(C)c1ccc(-c2cc(-c3ccnc(Br)c3)[nH]n2)cc1 [Compound 1]       0.1
22  Clc1cc(-c2nc(-c3ccc(N4CCCC4)cc3)c[nH]2)ccn1 [Compound 35]       168
23  COCCN1CCN(c2ccc(-c3cc(-c4ccnc(Br)c4)[nH]n3)cc2)CC1 [Compound 51]       2.7
24  CNc1ccc(-c2cc(-c3cc(C)nc(Br)c3)[nH]n2)cc1 [Compound 38]       113
25  Brc1cc(-c2nc(-c3ccc4c(c3)OCO4)n[nH]2)ccn1 [Compound 30]        12
26  Cc1cc(-c2cc(-c3ccc4c(c3)OCO4)n[nH]2)cc(Br)n1 [Compound 47]        97
27  FCCN1CCN(c2ccc(-c3cc(-c4ccnc(Cl)c4)[nH]n3)cc2)CC1 [Compound 50]       0.9
28  Brc1cc(-c2nc(-c3ccc4c(c3)OCO4)c[nH]2)ccn1 [Compound 33]        33
29  CN1CCN(c2ccc(-c3cc(-c4ccnc(Br)c4)[nH]n3)cc2)CC1 [Compound 26]         1
30  Brc1cccc(-c2cc(-c3cc4c(cn3)OCO4)n[nH]2)c1 [Compound 20]       5.5
31  Brc1ccnc(-c2cc(-c3ccc4c(c3)OCO4)n[nH]2)c1 [Compound 16]       4.7
32  Fc1cccc(-c2cc(-c3ccc4c(c3)OCO4)n[nH]2)n1 [Compound 11]       7.4
33  Brc1cc(-c2cc(-c3ccc(N4CCC4)cc3)n[nH]2)ccn1 [Compound 17]       0.8
34  Clc1cc(-c2cc(-c3ccc4c(c3)OCO4)n[nH]2)ccn1 [Compound 14]       1.3
35  CNc1ccc(-c2cc(-c3cncc(Cl)n3)[nH]n2)cc1 [Compound 36]        12
36  Fc1cc(-c2cc(-c3ccc(N4CCOCC4)cc3)n[nH]2)ccn1 [Compound 27]       1.3
37  CN(C)c1ccc(-c2nc(-c3ccnc(Br)c3)c[nH]2)cc1 [Compound 45]       0.2
